- procedure_details: Unbound fraction in human plasma
- Type: ADME, cell-free
property: fraction unbound
Numbers only.

Note fraction unbound for the molecule shown: `c1cn2cc(-c3ccc4cn[nH]c4c3)nc(Nc3ccc(N4CCOCC4)cc3)c2n1`
0.027

---

- procedure_details: Clearance in non-naive beagle dog at 0.4 mg/kg, iv
- Assay type: ADME, organism-based, Canis lupus familiaris
- Design: dose 0.4 mg/kg, route intravenous
- setup_conditions: in vivo
property: clearance
Numeric answer plus unit only.

Output measured clearance for this item: c1cn2cc(-c3ccc4cn[nH]c4c3)nc(Nc3ccc(N4CCOCC4)cc3)c2n1 [ENTOSPLETINIB]
13.3 mL/min/kg

---

- procedure_details: Clearance in human liver microsomes at 3 uM by LC/MS/MS analysis
- Type: ADME
property: CLhep predicted at 3 µM (mL/min/kg)
Give bare numbers, in mL/min/kg.

• c1cn2cc(-c3ccc4cn[nH]c4c3)nc(Nc3ccc(N4CCOCC4)cc3)c2n1 = 4.83
• O=S1(=O)CCN(c2ccc(Nc3nc(-c4ccc5cn[nH]c5c4)cn4ccnc34)cc2)CC1 = 10

Batch of 2 molecules: report CLhep predicted at 3 µM for each.
1. COc1cc(Nc2nc(-c3ccc4cn[nH]c4c3)cn3ccnc23)ccc1N1CCOCC1
2. c1ccc(Nc2nc(-c3ccc4cn[nH]c4c3)cn3ccnc23)cc1

12.5
8.17

Hey, can you go through the list below and give me CLhep predicted at 3 µM for every item?
1. c1cn2cc(-c3ccc4cn[nH]c4c3)nc(Nc3ccc(N4CCCOCC4)cc3)c2n1
2. c1cn2cc(-c3ccc4cn[nH]c4c3)nc(Nc3ccc(C4CCOCC4)cc3)c2n1
3. CC1(O)CCN(c2ccc(Nc3nc(-c4ccc5cn[nH]c5c4)cn4ccnc34)cc2)CC1

1. 5
2. 2
3. 4.5

---

Reported EC50 for target or system Tyrosine-protein kinase SYK (Homo sapiens, UniProt P43405), by entry.
Answers are plain numbers, in nM.

• CC1(O)CN(c2ccc(Nc3nc(-c4ccc5cn[nH]c5c4)cn4ccnc34)cc2)C1 = 1260

Here is the next item to consider.
Identify measured EC50 corresponding to `CN(CCO)c1ccc(Nc2nc(-c3ccc4cn[nH]c4c3)cn3ccnc23)cc1`
1090

---

- target_of_assay: Tyrosine-protein kinase SYK (Homo sapiens)
property: pIC50
One number for each entry, as −log10 of the molar value.

Fetch value of pIC50 on Tyrosine-protein kinase SYK (Homo sapiens) for `c1cn2cc(-c3ccc4cn[nH]c4c3)nc(Nc3ccc(C4CCOCC4)cc3)c2n1` .
8.42

---

- procedure_details: Half life in dog liver microsomes at 3 uM by LC/MS/MS analysis
- Format: ADME, Canis lupus familiaris
property: half-life at 3 µM
Units required after the number.

Answer with the recorded half-life at 3 µM for the compound listed here: c1cn2cc(-c3ccc4cn[nH]c4c3)nc(Nc3ccc(N4CCOCC4)cc3)c2n1 [ENTOSPLETINIB]
23.4 min

---

- procedure_details: Oral bioavailability in non-naive beagle dog at 1 mg/kg
- Type: ADME, organism-based, Canis lupus familiaris
- setup_conditions: in vivo
property: bioavailability

Read off the recorded bioavailability for `c1cn2cc(-c3ccc4cn[nH]c4c3)nc(Nc3ccc(N4CCOCC4)cc3)c2n1`
53%

---

- target_of_assay: Tyrosine-protein kinase JAK2 (Homo sapiens)
- Sequence (O60674 whole entry): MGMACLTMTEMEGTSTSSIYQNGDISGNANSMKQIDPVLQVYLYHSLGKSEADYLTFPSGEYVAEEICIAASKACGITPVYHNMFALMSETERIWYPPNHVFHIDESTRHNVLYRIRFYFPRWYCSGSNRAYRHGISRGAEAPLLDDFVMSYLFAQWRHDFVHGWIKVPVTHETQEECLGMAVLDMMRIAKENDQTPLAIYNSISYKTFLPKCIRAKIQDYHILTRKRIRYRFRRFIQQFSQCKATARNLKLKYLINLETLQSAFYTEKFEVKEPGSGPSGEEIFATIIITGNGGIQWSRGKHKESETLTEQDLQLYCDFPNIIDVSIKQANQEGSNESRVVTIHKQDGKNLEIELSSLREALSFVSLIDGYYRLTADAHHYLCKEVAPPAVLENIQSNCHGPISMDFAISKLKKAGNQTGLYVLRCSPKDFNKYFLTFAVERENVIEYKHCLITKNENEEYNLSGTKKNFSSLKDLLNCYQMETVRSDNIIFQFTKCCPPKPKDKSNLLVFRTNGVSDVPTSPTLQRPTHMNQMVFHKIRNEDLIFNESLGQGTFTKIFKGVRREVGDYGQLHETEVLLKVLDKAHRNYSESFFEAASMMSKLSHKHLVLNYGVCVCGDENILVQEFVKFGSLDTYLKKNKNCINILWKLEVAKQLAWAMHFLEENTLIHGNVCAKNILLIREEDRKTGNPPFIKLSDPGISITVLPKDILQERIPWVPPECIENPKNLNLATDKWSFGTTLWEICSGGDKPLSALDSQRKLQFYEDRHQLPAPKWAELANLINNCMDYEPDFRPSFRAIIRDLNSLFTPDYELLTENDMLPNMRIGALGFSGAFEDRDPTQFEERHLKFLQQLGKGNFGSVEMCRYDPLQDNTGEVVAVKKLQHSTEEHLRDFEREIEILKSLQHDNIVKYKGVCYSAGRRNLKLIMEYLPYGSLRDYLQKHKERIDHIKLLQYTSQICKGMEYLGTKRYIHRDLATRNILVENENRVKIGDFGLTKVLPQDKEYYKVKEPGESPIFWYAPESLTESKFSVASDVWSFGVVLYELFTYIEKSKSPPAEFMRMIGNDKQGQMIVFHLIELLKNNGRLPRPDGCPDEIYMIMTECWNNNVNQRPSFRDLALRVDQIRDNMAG
- procedure_details: Inhibition of Jak2 in erythropoietin-stimulated human TF1 cells assessed as assessed as phospho-Stat5 after 1 hr incubation
property: EC50 (nM)
Numbers only, in nM.

Consider the molecule c1cn2cc(-c3ccc4cn[nH]c4c3)nc(Nc3ccc(N4CCOCC4)cc3)c2n1 [ENTOSPLETINIB] and give its recorded EC50.
453

Origin of the recorded values: ChEMBL document CHEMBL3259702
